Where do the numbers come from? From patent US20260242478A1.

Please provide measured Off rate t1/2 for the entries that follow.
# assayed system: T1, PSMA Fab
# T1 construct: also called 006 PSMA Fab; anti-PSMA Fab
# assay notes: BLI (Octet); PSMA Fab on sensor-loaded biotinylated peptide, 1:1 model
Output spec: scalar in min, unitless text.

QUERY: May I ask what Off rate t1/2 has been recorded for IPKSCIPSWMCTGF [Peptide-225] ?
RESULT: 2.1

QUERY: Also HVKLCKPAWMCQGL [Peptide-219] ?
RESULT: 2.9

QUERY: Also GEKWCIPDWMCSGF [Peptide-233] ?
RESULT: 3.9

QUERY: Also VEKLCTPIWMCLGF [Peptide-235] ?
RESULT: 2.3

QUERY: Also IDIRCTPIWMCVGF [Peptide-239] ?
RESULT: 2

QUERY: Also DVKLCKPEWMCYGL [Peptide-236] ?
RESULT: 1.8

QUERY: Also LDNWCKPSWMCTGF [Peptide-227] ?
RESULT: 2.1
